For each entry below, report its MIC value.
- Test system: Salmonella typhimurium
- experiment summary: Antibacterial activity against Salmonella typhimurium TA100 assessed as reduction in microbial growth incubated for 24 hrs by broth microdilution method
- Format: functional, Salmonella enterica subsp. enterica serovar Typhimurium
- condition parameters: Salmonella enterica
Give bare numbers, in µg/mL.

compound	study target	test value
CCn1cc(C(=O)O)c(=O)c2cc(F)c(N3CCN(Cc4cnc(C)c5c4COC(C)O5)C(C)C3)c(F)c21 (stereo not drawn)	Salmonella typhimurium	2
COc1c(N2C[C@@H]3CCCN(Cc4nc(C)c(O)c(CO)c4CO)[C@@H]3C2)c(F)cc2c(=O)c(C(=O)O)cn(C3CC3)c12.Cl	Salmonella typhimurium	2
Cc1ncc(CN2CCN(c3cc4c(cc3F)c(=O)c(C(=O)O)cn4C3CC3)CC2)c2c1OC(C)(C)OC2.Cl	Salmonella typhimurium	4
COc1c(N2C[C@@H]3CCCN(Cc4cnc(C)c5c4COC(C)(C)O5)[C@@H]3C2)c(F)cc2c(=O)c(C(=O)O)cn(C3CC3)c12	Salmonella typhimurium	4
CCn1cc(C(=O)O)c(=O)c2cc(F)c(N3CCN(Cc4cnc(C)c(O)c4CO)CC3)cc21.Cl	Salmonella typhimurium	4
CCn1cc(C(=O)O)c(=O)c2cc(F)c(N3CCN(Cc4nc(C)c5c(c4CO)COC(C)(C)O5)CC3)cc21	Salmonella typhimurium	2

Batch request: MIC per item, same order as input.
1. Cc1nc(CN2CCN(c3cc4c(cc3F)c(=O)c(C(=O)O)cn4C3CC3)CC2)c(CO)c(CO)c1O.Cl
2. Cc1nc(CN2CCN(c3cc4c(cc3F)c(=O)c(C(=O)O)cn4C3CC3)CC2)c(CO)c2c1OC(C)(C)OC2

Out:
1: 4; 2: 4

----------
- experiment summary: Toxicity in F1 C57Bl6 x CBA mouse assessed as mortality at 1000 to 2000 mg/kg, po relative to control
- Format: organism-based
- condition parameters: in vivo, dose 1000-2000 mg/kg
metric name: mortality

In: Item under review: COc1c(N2C[C@@H]3CCCN(Cc4cnc(C)c(O)c4C)[C@@H]3C2)c(F)cc2c(=O)c(C(=O)O)cn(C3CC3)c12.Cl.Cl . Reported mortality?
Out: > 80%

----------
For each entry below, report its MIC value.
- System: Salmonella typhimurium
- experiment summary: Antibacterial activity against Salmonella typhimurium TA100 assessed as reduction in microbial growth incubated for 24 hrs by broth microdilution method
- Assay type: functional, Salmonella enterica subsp. enterica serovar Typhimurium
- condition parameters: Salmonella enterica
Answers are plain numbers, in µg/mL.

compound	MIC (µg/mL)
CCCC1OCc2c(CN3CCN(c4cc5c(cc4F)c(=O)c(C(=O)O)cn5CC)CC3)cnc(C)c2O1 (stereo unspecified)	2
CCn1cc(C(=O)O)c(=O)c2cc(F)c(N3CCN(Cc4c(CO)nc(C)c(O)c4CO)CC3)cc21.Cl	4
COc1c(N2C[C@@H]3CCCN(Cc4cnc(C)c5c4COCO5)[C@@H]3C2)c(F)cc2c(=O)c(C(=O)O)cn(C3CC3)c12.Cl	2

Batch request: MIC per item, same order as input.
1. Cc1ncc(CN2CCN(c3cc4c(cc3F)c(=O)c(C(=O)O)cn4C3CC3)CC2)c2c1OC(C)OC2.Cl (stereo unspecified)
2. COc1c(N2C[C@@H]3CCCN(Cc4c(CO)nc(C)c(O)c4CO)[C@@H]3C2)c(F)cc2c(=O)c(C(=O)O)cn(C3CC3)c12.Cl
3. Cc1ncc(CN2CCN(c3cc4c(cc3F)c(=O)c(C(=O)O)cn4C3CC3)CC2)c2c1OCOC2.Cl
4. COc1c(N2C[C@@H]3CCCN(Cc4cnc(C)c(O)c4CO)[C@@H]3C2)c(F)cc2c(=O)c(C(=O)O)cn(C3CC3)c12.Cl

Out:
1: 4; 2: 2; 3: 0.5; 4: 4

Batch request: MIC per item, same order as input.
1. COc1c(N2C[C@@H]3CCCN(Cc4cnc(C)c5c4COC(C)O5)[C@@H]3C2)c(F)cc2c(=O)c(C(=O)O)cn(C3CC3)c12 (stereo partly specified)
2. Cc1ncc(CN2CCN(c3cc4c(cc3F)c(=O)c(C(=O)O)cn4C3CC3)CC2)c(C)c1O.Cl
3. COc1c(N2C[C@@H]3CCCN[C@@H]3C2)c(F)cc2c(=O)c(C(=O)O)cn(C3CC3)c12
4. COc1c(N2C[C@@H]3CCCN(Cc4cnc(C)c(O)c4C)[C@@H]3C2)c(F)cc2c(=O)c(C(=O)O)cn(C3CC3)c12.Cl.Cl
5. CCn1cc(C(=O)O)c(=O)c2cc(F)c(N3CCN(Cc4nc(C)c(O)c(CO)c4CO)C(C)C3)c(F)c21.Cl (stereo unspecified)
6. CCn1cc(C(=O)O)c(=O)c2cc(F)c(N3CCN(Cc4cnc(C)c(O)c4C)CC3)cc21.Cl

Out:
1. 4
2. 1
3. 1
4. 1
5. 2
6. 64

In: Item under review: CCCC1OCc2c(CN3CCN(c4cc5c(cc4F)c(=O)c(C(=O)O)cn5C4CC4)CC3)cnc(C)c2O1 (stereo unspecified) . Reported MIC?
Out: 4

----------
For each entry below, report its CC50 at 72 h value.
- experiment summary: Cytotoxicity against human MSC assessed as reduction in cell viability incubated for 72 hrs by MTT assay
- Assay type: toxicity, cell-based
- condition parameters: MSC cells
Numbers only, in µg/mL.

compound	CC50 at 72 h / µg/mL
CCCC1OCc2c(CN3CCC[C@H]4CN(c5c(F)cc6c(=O)c(C(=O)O)cn(C7CC7)c6c5OC)C[C@H]43)cnc(C)c2O1 (some centres undefined)	2.91
COc1c(N2C[C@@H]3CCCN(Cc4cnc(C)c(O)c4CO)[C@@H]3C2)c(F)cc2c(=O)c(C(=O)O)cn(C3CC3)c12.Cl	48.4
COc1c(N2C[C@@H]3CCCN(Cc4nc(C)c(O)c(CO)c4CO)[C@@H]3C2)c(F)cc2c(=O)c(C(=O)O)cn(C3CC3)c12.Cl	31.7
COc1c(N2C[C@@H]3CCCN[C@@H]3C2)c(F)cc2c(=O)c(C(=O)O)cn(C3CC3)c12 [MOXIFLOXACIN]	39.4
CCn1cc(C(=O)O)c(=O)c2cc(F)c(N3CCN(Cc4nc(C)c5c(c4CO)COC(C)(C)O5)CC3)cc21	16.2

Batch request: CC50 at 72 h per item, same order as input.
1. COc1c(N2C[C@@H]3CCCN(Cc4c(CO)nc(C)c(O)c4CO)[C@@H]3C2)c(F)cc2c(=O)c(C(=O)O)cn(C3CC3)c12.Cl
2. CCn1cc(C(=O)O)c(=O)c2cc(F)c(N3CCN(Cc4cnc(C)c(O)c4CO)C(C)C3)c(F)c21.Cl (centres undefined)
3. Cc1ncc(CN2CCN(c3cc4c(cc3F)c(=O)c(C(=O)O)cn4C3CC3)CC2)c(C)c1O.Cl
4. COc1c(N2C[C@@H]3CCCN(Cc4cnc(C)c(O)c4C)[C@@H]3C2)c(F)cc2c(=O)c(C(=O)O)cn(C3CC3)c12.Cl.Cl
5. Cc1ncc(CN2CCN(c3cc4c(cc3F)c(=O)c(C(=O)O)cn4C3CC3)CC2)c2c1OCOC2.Cl
6. Cc1nc(CO)c(CN2CCN(c3cc4c(cc3F)c(=O)c(C(=O)O)cn4C3CC3)CC2)c(CO)c1O.Cl

Out:
[20.6, 13.1, 25.1, 12.7, 69.5, 52.6]

Batch request: CC50 at 72 h per item, same order as input.
1. Cc1ncc(CN2CCN(c3cc4c(cc3F)c(=O)c(C(=O)O)cn4C3CC3)CC2)c(CO)c1O.Cl
2. COc1c(N2C[C@@H]3CCCN(Cc4nc(C)c5c(c4CO)COC(C)(C)O5)[C@@H]3C2)c(F)cc2c(=O)c(C(=O)O)cn(C3CC3)c12
3. O=C(O)c1cn(C2CC2)c2cc(N3CCNCC3)c(F)cc2c1=O [CIPROFLOXACIN]
4. CCn1cc(C(=O)O)c(=O)c2cc(F)c(N3CCNCC3)cc21 [NORFLOXACIN]
5. CCn1cc(C(=O)O)c(=O)c2cc(F)c(N3CCNC(C)C3)c(F)c21 (centres undefined) [LOMEFLOXACIN]
6. COc1c(N2C[C@@H]3CCCN(Cc4cnc(C)c5c4COC(C)(C)O5)[C@@H]3C2)c(F)cc2c(=O)c(C(=O)O)cn(C3CC3)c12
7. CCn1cc(C(=O)O)c(=O)c2cc(F)c(N3CCN(Cc4cnc(C)c5c4COCO5)CC3)cc21.Cl

Out:
1. 40.3
2. 7.26
3. 41.6
4. 29.3
5. 35.7
6. 3.84
7. 21.2

In: Item under review: COc1c(N2C[C@@H]3CCCN(Cc4cnc(C)c5c4COCO5)[C@@H]3C2)c(F)cc2c(=O)c(C(=O)O)cn(C3CC3)c12.Cl . Reported CC50 at 72 h?
Out: 9.62

Each recorded value in this set is attributed to ChEMBL document CHEMBL5634112.
